All values here come from paper PMC9159852.

System: Daphnia magna
Assay: Acute toxicity assay against Daphnia magna
Details: 0.1 μM, 24 h exposure
Procedure: The general toxicity of the tested compounds was evaluated using Daphnia magna (Straus, 1820). Daphnia magna was originated from a culture maintained parthenogenetically at the Institute of Zoology (Laboratory of Systematics and Molecular Phylogeny). The test design was based on ISO 6341 : 2012. The test-organisms Daphnia magna Straus were fed with Chlorella vulgaris. […] The percentage of viability (V (%)) of Daphnia magna was calculated according to the formula:(1) V%=Nsample/Ncontrol×100. […]
For each record, write down the corresponding V, (%) percentage of viability of Daphnia magna.
Numbers only, in %.

C=CCNC(=NN=Cc1ccccn1)[S][Cu][O]C(C)=O.C=CCNC(=NN=Cc1ccccn1)[S][Cu][O]C(C)=O.O.O.O.O [compound 4, [Cu2(L)2(CH3COO)2]·4H2O]    76.9
C=CCNC([S-])=NN=Cc1ccccn1.C=CCNC([S-])=NN=Cc1ccccn1.[Cl-].[Co+3] [compound 6, [Co(L)2]Cl]    97.4
C=CCNC(=NN=Cc1ccccn1)[S][Cu][Cl] [compound 2, [Cu(L)Cl]]    102.6
C=CCNC(=S)NN=Cc1ccccn1.C=CCNC(=S)NN=Cc1ccccn1.O.[Cl-].[Cl-].[Ni+2] [compound 5, [Ni(HL)2]Cl2·H2O]    102.6

Please look at the following compound next.
Exercise: Param item = C=CCNC(=NN=Cc1ccccn1)[S][Cu][Br] [compound 3, [Cu(L)Br]] ; retrieve measured V, (%) percentage of viability of Daphnia magna.
Solution: 102.6
